System: Echinochloa oryzoides (Ard.) Fritsch.
Experiment: Preemergence weed control under flooded paddy conditions, ECHORC (Watergrass (Calif.)); note: meaning of each grade not given here
Assay type: in vivo
Details: 0.0313 kg/ha; preemergence, flooded paddy; rated three to four weeks after treatment
Reported endpoint: herbicidal effect rating, ECHORC

CCc1ccc(OC)c(-c2nsc3ccc(-n4c(=O)cc(C(F)(F)F)n(C)c4=O)cc23)c1 = 9.0
Cc1ccc(OCC(=O)OC(C)(C)C)c(-c2nsc3ccc(-n4c(=O)cc(C(F)(F)F)n(C)c4=O)cc23)c1 = 7.5
Cn1c(C(F)(F)F)cc(=O)n(-c2ccc3snc(Br)c3c2)c1=O = 0.0
C=CCOC(=O)COc1ccc(C)cc1-c1nsc2ccc(-n3c(=O)cc(C(F)(F)F)n(C)c3=O)cc12 = 9.0
COC(=O)COc1c(C)cc(C)cc1-c1nsc2ccc(-n3c(=O)cc(C(F)(F)F)n(C)c3=O)cc12 = 7.0
Cc1ccc(OCC(=O)OC(C)C(C)(C)C)c(-c2nsc3ccc(-n4c(=O)cc(C(F)(F)F)n(C)c4=O)cc23)c1 (stereo not shown) = 8.0
Cn1c(C(F)(F)F)cc(=O)n(-c2ccc3snc(Cl)c3c2)c1=O = 4.0
COC(=O)C(C)Oc1ccc(C)cc1-c1nsc2ccc(-n3c(=S)cc(C(F)(F)F)n(C)c3=O)cc12 (stereo not shown) = 7.5

Query: Entry COC(=O)C(C)Oc1ccccc1Oc1noc2ccc(-n3c(=O)cc(C(F)(F)F)n(C)c3=O)cc12 (stereo not shown) has what herbicidal effect rating, ECHORC?
Response: 0.0

Query: Entry C=CCOc1ccc(C)cc1-c1nsc2ccc(-n3c(=O)cc(C(F)(F)F)n(C)c3=O)cc12 : reported herbicidal effect rating, ECHORC = ?
Response: 0.0

Query: Reported herbicidal effect rating, ECHORC, compound COc1ccc(C)cc1-c1nsc2ccc(-n3c(=O)cc(C)n(C)c3=O)cc12 : ____
Response: 0.0

Query: Need herbicidal effect rating, ECHORC of Cn1c(C(F)(F)F)cc(=O)n(-c2ccc3snc(CP(=O)(O)O)c3c2)c1=O , thanks.
Response: 4.0

Query: # input compound: Cc1noc2cc(F)c(-n3c(=O)cc(C(F)(F)F)n(C)c3=O)cc12 ; wanted: its herbicidal effect rating, ECHORC
Response: 4.5

----------
System: Cyperus serotinus, Rottb.
Test: Preemergence weed control under flooded paddy conditions, CYPSE (Flatsedge); note: meaning of each grade not given here
Type: in vivo
Conditions: Rate 0.2500 kg/ha, preemergence weeds, rated three to four weeks after treatment
Reported endpoint: herbicidal effect rating, CYPSE
Reply with the value as a number alone.

Observe how each entry below is paired with its result.
COC(=O)COc1cccc(-c2nsc3ccc(-n4c(=O)cc(C(F)(F)F)n(C)c4=O)cc23)c1 [Example 332] = 7.5
Cn1c(C(F)(F)F)cc(=O)n(-c2ccc3snc(-c4ccccc4OCC(=O)NS(=O)(=O)CCl)c3c2)c1=O [Example 344] = 6.0
CN(O)C(=O)COc1ccccc1-c1nsc2ccc(-n3c(=O)cc(C(F)(F)F)n(C)c3=O)cc12 [Example 336] = 3.0

Query: Recorded herbicidal effect rating, CYPSE of CC(C)Oc1cccc(-c2nsc3ccc(-n4c(=O)cc(C(F)(F)F)n(C)c4=O)cc23)c1 [Example 328] , please.
Response: 9.0

----------
Test system: Monochoria vaginalis, Presl.
Assay: Preemergence weed control under flooded paddy conditions, MOOVA (Monochoria)
Assay type: in vivo
Conditions: 0.2500 kg/ha; preemergence weeds, flooded paddy; herbicidal effect rating 0-9, three to four weeks after treatment
Some compounds, each annotated with its measured MOOVA.
Field format: numeric only.

Worked cases, MOOVA given:
Cn1c(C(F)(F)F)cc(=O)n(-c2ccc3snc(C4(C#N)CC4)c3c2)c1=O [Example 446] = 9.0
CCOC(=O)c1nsc2cc(F)c(-n3c(=O)cc(C(F)(F)F)n(C)c3=O)cc12 [Example 423] = 9.0
Cn1c(C(F)(F)F)cc(=O)n(-c2ccc3snc(C(SCCCO)SCCCO)c3c2)c1=O [Example 424] = 9.0
CN(/N=C/c1nsc2ccc(-n3c(=O)cc(C(F)(F)F)n(C)c3=O)cc12)c1ccccc1 [Example 412] = 9.0
CCSC(=O)c1nsc2ccc(-n3c(=O)cc(C(F)(F)F)n(C)c3=O)cc12 [Example 422] = 9.0

Query: Which MOOVA reading was recorded for the compound COc1ccc(CC(=O)OCc2nsc3ccc(-n4c(=O)cc(C(F)(F)F)n(C)c4=O)cc23)cc1 [Example 450] ?
Response: 9.0

Query: I have this compound here, CC(OS(=O)(=O)c1ccccc1)c1nsc2ccc(-n3c(=O)cc(C(F)(F)F)n(C)c3=O)cc12 (centres unmarked) [Example 415] , and I need its recorded MOOVA.
Response: 8.0

Query: Any idea what its MOOVA is? The compound is COC(=O)COc1ccc(C)cc1-c1nsc2cc(Cl)c(-n3c(=O)cc(C(F)(F)F)n(C)c3=O)cc12 [Example 443]
Response: 7.0

----------
Test system: Oryza sativa, (L.) Tebonnet
Assay: Rice tolerance to post-transplant applications under flooded paddy conditions (Example 187), ORYSAT (Rice, Tebonnet)
Conditions: 0.0620 kg/ha, herbicidal effect rating 0-9, three to four weeks after treatment
Listing: ORYSAT of selected compounds
Keep the answer to the number alone.

Query: Returns the measured ORYSAT for the input compound. Input: CCSC(=O)c1nsc2ccc(-n3c(=O)cc(C(F)(F)F)n(C)c3=O)cc12 [Example 422]
Response: 0.0

Query: What value of measured ORYSAT is listed for Cc1ccc(OCC(=O)NS(C)(=O)=O)c(-c2noc3cc(F)c(-n4c(=O)cc(C(F)(F)F)n(C)c4=O)cc23)c1 [Example 428] ?
Response: 2.0

Query: GET /values?readout=ORYSAT&item= CC(Cl)c1nsc2ccc(-n3c(=O)cc(C(F)(F)F)n(C)c3=O)cc12 (stereo not drawn) [Example 416]
Response: 7.0

Query: Query (compound): COc1cc(C)c(I)cc1-c1nsc2ccc(-n3c(=O)cc(C(F)(F)F)n(C)c3=O)cc12 [Example 429] ; field requested: ORYSAT
Response: 2.0

Query: Fill in: ORYSAT of CCC(C#N)(CC)c1nsc2ccc(-n3c(=O)cc(C(F)(F)F)n(C)c3=O)cc12 [Example 445] is ___
Response: 6.5

Query: # lookup: ORYSAT of CN(C(=O)COc1ccccc1-c1nsc2ccc(-n3c(=O)cc(C(F)(F)F)n(C)c3=O)cc12)S(C)(=O)=O [Example 438]
Response: 5.0

Query: Reported ORYSAT, compound CC(c1ccccc1)S(=O)(=O)NC(=O)c1nsc2ccc(-n3c(=O)cc(C(F)(F)F)n(C)c3=O)cc12 (stereo not drawn) [Example 427] : ____
Response: 0.0

----------
System: Cyperus iria
Assay: Preemergence weed control under flooded paddy conditions, CYPIR (Rice Flatsedge)
Type: in vivo
Conditions: 0.0620 kg/ha; preemergence, flooded paddy; rated three to four weeks after treatment
CYPIR herbicidal rating for assorted molecules
Please reply with the number alone, leaving off any unit.

Here are 5 molecules together with their reported answers.
COC(=O)COc1cc(C)c(I)cc1-c1nsc2ccc(-n3c(=O)cc(C(F)(F)F)n(C)c3=O)cc12 = 1.5
C=CCOC(=O)C(C)(C)c1nsc2ccc(-n3c(=O)cc(C(F)(F)F)n(C)c3=O)cc12 = 9.0
COC(CCOc1ccc(C)cc1-c1nsc2ccc(-n3c(=O)cc(C(F)(F)F)n(C)c3=O)cc12)OC = 5.0
COCC(=O)OCc1nsc2ccc(-n3c(=O)cc(C(F)(F)F)n(C)c3=O)cc12 = 6.0
CC(C)N(C(C)C)S(=O)(=O)NC(=O)c1nsc2ccc(-n3c(=O)cc(C(F)(F)F)n(C)c3=O)cc12 = 6.0

Query: CYPIR herbicidal rating of Cc1cccc(CS(=O)(=O)NC(=O)c2nsc3ccc(-n4c(=O)cc(C(F)(F)F)n(C)c4=O)cc23)c1 on Cyperus iria?
Response: 2.0

----------
Test system: Cyperus serotinus, Rottb.
Experiment: Postemergence weed control under flooded paddy conditions, CYPSE (Flatsedge)
Type: in vivo
Details: Rate 0.5000 kg/ha, rated three to four weeks after treatment
Reported endpoint: herbicidal effect rating, CYPSE
No unit in the answer, only the number.

Would you please look over these solved cases?
COC(=O)COc1ccc(C)cc1-c1nsc2ccc(-n3c(=O)cc(C(F)(F)F)n(C)c3=O)cc12 = 0.0
Cc1cc(O)c(-c2nsc3ccc(-n4c(=O)cc(C(F)(F)F)n(C)c4=O)cc23)cc1C = 0.0
Cn1c(C(F)(F)F)cc(=O)n(-c2ccc3snc(-c4ccccc4)c3c2)c1=O = 9.0
COc1cc(C)ccc1-c1nsc2ccc(-n3c(=O)cc(C(F)(F)F)n(C)c3=O)cc12 = 8.0

// next item, herbicidal effect rating, CYPSE requested
Query: I'd like to know its herbicidal effect rating, CYPSE. The compound in question is COc1ccc(C)cc1-c1nsc2ccc(-n3c(=O)cc(C(F)(F)F)n(C)c3=O)cc12
Response: 6.5
